Tested on: HT-29 cells
Experiment: Inhibition assay of cancer cell sphere-forming ability (Test Example 2), HT-29
Type: cell-based, human
Details: HT-29 cells, Ultra-Low Attachment plate, serum-free DMEM/F12 with B27, EGF, bFGF, insulin, 4 days, Cell Titer-Glo; read-out: IC50 (μM) HT; concentration for 50% inhibition of cell proliferation (Sphere IC50 value)
Measured endpoint: IC50 (µM)
Enter your answer as a number in µM; do not include the unit.

Inquiry: Fill blank: measured IC50 of the compound O=C(NCC(F)F)c1cc2c(s1)C(=O)c1ncccc1C2=O [Example 40] is ____.
Reply text: 0.51

Inquiry: And what about the compound CCN(Cc1ccncc1)Cc1cc2c(s1)C(=O)c1cccnc1C2=O [Example 7] ?
Reply text: 3.04

Inquiry: Similarly, CCN(Cc1ccncc1)Cc1cc2c(s1)C(=O)c1cccnc1C2=O [Example 8] ?
Reply text: 0.6

Taken from patent US10934309B2.
